System: Vero-E6
run.description: primary screen, phospholipidosis by LipidTOX staining; higher = more effect of the substance
assay.setup: 10 µM
In all, about 5,400 compounds went through this assay and about 190 (3.5%) showed an effect of 50% or more. The list comes from a sample in which strong results are over-represented; it also holds close analogues and randomly drawn compounds.
Would you mind telling me the reported result_ITMP of each entry?

Query: Which result_ITMP value is on record for NC(=O)C1=CN([C@@H]2O[C@H](COP(=O)([O-])OP(=O)([O-])OC[C@H]3O[C@@H](n4cnc5c(N)ncnc54)[C@H](O)[C@@H]3O)[C@@H](O)[C@H]2O)C=CC1 ?
Response: -10.8%

Query: What value of result_ITMP has been recorded for this entry: C[C@@H](O[C@H]1OCCN(Cc2nn[nH]c2CN(C)C)[C@H]1c1ccc(F)cc1)c1cc(C(F)(F)F)cc(C(F)(F)F)c1
Response: 71.2%

Query: Which result_ITMP reading was recorded for the compound C[C@@H](O[C@H]1OCCN(Cc2n[nH]c(=O)[nH]2)[C@H]1c1ccc(F)cc1)c1cc(C(F)(F)F)cc(C(F)(F)F)c1 ?
Response: 2.55%

Query: What value of result_ITMP has been recorded for this entry: O=C(N[C@H]1CN2CCC1CC2)c1cnc2ccsc2c1O
Response: -2.55%

Query: Fill in the blank: the reported result_ITMP of CN[C@H](CC(C)C)C(=O)NC1C(=O)N[C@@H](CC(N)=O)C(=O)N[C@H]2C(=O)NC3C(=O)N[C@H](C(=O)N[C@@H](C(=O)O)c4cc(O)cc(O)c4-c4cc3ccc4O)[C@H](O)c3ccc(c(Cl)c3)Oc3cc2cc(c3O[C@@H]2OC(CO)[C@@H](O)[C@H](O)[C@H]2O[C@H]2C[C@](C)(N)[C@H](O)[C@H](C)O2)Oc2ccc(cc2Cl)[C@H]1O (some centres unmarked) is ____.
Response: -7.09%

Query: Recorded result_ITMP of Clc1ccc2c(c1)C(N1CCNCC1)=Nc1ccccc1O2 , please.
Response: 70%

Query: Quick check: result_ITMP of COc1ccccc1C1(O)CCN(CCCn2c3ccccc3c3ccccc32)CC1 ?
Response: 52.4%

Query: Consider the compound c1ccc2c(Cc3c[nH]c4ccccc34)c[nH]c2c1 and give its measured result_ITMP.
Response: -4.8%

Query: Given the compound O=C(CCCN1CCC(O)(c2ccc(Br)cc2)CC1)c1ccc(F)cc1 , what is its reported result_ITMP?
Response: 14.8%

Query: Name the reported result_ITMP value associated with the compound CC1(C)CC[C@]2(NC(=O)C(C)(F)F)CC[C@]3(C)C(C(=O)C=C4[C@@]5(C)C=C(C#N)C(=O)C(C)(C)[C@@H]5CC[C@]43C)C2C1 (some centres unmarked)
Response: -22.1%

Query: # query: result_ITMP of entry CN1CCN(c2cc(-c3ccccc3)nc(N)n2)CC1
Response: 5.46%

Query: Sample CC(=O)NNC(=O)N1Cc2ccccc2Oc2ccc(Cl)cc21 — what was its result_ITMP?
Response: -0.36%

Query: # get_value(readout='result_ITMP', item= C[C@@H]([C@H](O)c1ccc(O)cc1)N1CCC(Cc2ccccc2)CC1.C[C@H]([C@@H](O)c1ccc(O)cc1)N1CCC(Cc2ccccc2)CC1 )
Response: 8.99%

Query: result_ITMP lookup needed for CC(=O)NCCc1c[nH]c2ccccc12 , thanks.
Response: -3.74%

Query: # input compound: c1ccc2c(CCNc3ccc(Nc4ccncc4)cc3)c[nH]c2c1 ; wanted: its result_ITMP
Response: 74%

Query: Which measured result_ITMP value corresponds to CC[C@]12C=CCN3CC[C@@]4(c5cc([C@@]6(C(=O)OC)C[C@H]7C[C@@H](C(C)(F)F)CN(Cc8c6[nH]c6ccccc86)C7)c(OC)cc5N(C)[C@H]4[C@@](O)(C(=O)OC)[C@@H]1OC(C)=O)[C@@H]32 ?
Response: 49.7%

Query: Tell me the measured result_ITMP of CCOc1nc2cccc(C(=O)O)c2n1Cc1ccc(-c2ccccc2-c2nc(=O)o[nH]2)cc1 , please.
Response: -0.57%

Query: Tell me the measured result_ITMP of COc1ccccc1N1CCN(CCN2C(=O)c3ccccc3C(C)(C)C2=O)CC1 , please.
Response: 2.7%

Query: Bench note: what result_ITMP did C[C@@H](O[C@H]1OCCN(Cc2nn(P(=O)(O)O)c(=O)[nH]2)[C@H]1c1ccc(F)cc1)c1cc(C(F)(F)F)cc(C(F)(F)F)c1 show?
Response: 6.28%

Query: Request the reported result_ITMP associated with C=CCn1c(=O)n([C@@H]2O[C@H](CO)[C@@H](O)[C@H]2O)c2nc(N)nc(O)c21
Response: -1.06%

Query: Entry NC(N)=NCCC[C@@H](N)C(=O)N[C@@H](CCCN=C(N)N)C(=O)N1CCC[C@H]1C(=O)N1C[C@H](O)C[C@H]1C(=O)NCC(=O)N[C@@H](Cc1cccs1)C(=O)N[C@@H](CO)C(=O)N1Cc2ccccc2C[C@@H]1C(=O)N1[C@H](C(=O)N[C@@H](CCCN=C(N)N)C(=O)O)C[C@@H]2CCCC[C@@H]21 has what result_ITMP?
Response: -1.28%

Query: Given the entry O=C1CN(/N=C/c2ccc(-c3ccc([N+](=O)[O-])cc3)o2)C(=O)[N-]1 , report its measured result_ITMP.
Response: -3.77%

Query: Value lookup for result_ITMP; key = O=C(CCCN1CCC2(CC1)C(=O)N(Cc1cccc(F)c1)CN2c1ccccc1)c1ccc(F)cc1
Response: 89%

Query: Quick one: result_ITMP for CN1CCN2c3ccccc3Cc3ccccc3C2C1 (centres unmarked) ?
Response: 15.9%

Query: # get_value(readout='result_ITMP', item= C[C@]12CCC(=O)C=C1CC[C@@H]1[C@@H]2CC[C@@]2(C)[C@H]1CC[C@]2(C)O )
Response: 0.46%

Query: Consider the compound Cc1ccc(Oc2ccccc2-c2csc(NC3=NCCCN3)n2)c(C)c1 and give its measured result_ITMP.
Response: 6.61%

Query: May I ask what result_ITMP has been recorded for Cc1cc2c(s1)Nc1ccccc1N=C2N1CCN(C)CC1 ?
Response: -8.9%

Query: Fill in: result_ITMP of Cc1cc(N2CCOCC2)cc2nc(-c3c(NC[C@@H](O)c4cccc(Cl)c4)cc[nH]c3=O)[nH]c12 is ___
Response: -0.86%

Query: Bench note: what result_ITMP did C[C@@H]1CCCN1CCc1cc2cc(-c3ccc(C#N)cc3)ccc2o1 show?
Response: 66.8%

Query: I am curious: what result_ITMP value has been reported for C[C@]12CCC(=O)C=C1CCC1C2[C@@H](O)C[C@@]2(C)C1CC[C@]2(O)C(=O)COC(=O)CCC(=O)O (some centres unmarked) ?
Response: -1.39%

Query: Quick one: result_ITMP of O=C(O)COc1nn(Cc2ccccc2)c2ccccc12 ?
Response: 0%

Query: Entry CC1(C)CCC(C)(C)c2c1cc(C(=O)Nc1cc(F)c(C(=O)O)c(F)c1)c(O)c2Cl has what result_ITMP?
Response: -2.47%
